Biological target: human recombinant mGluR5 (Homo sapiens, UniProt P41594)
Construct: expressed in transfected cells; hygromycin and geneticin selection
Sequence (P41594 21-1212): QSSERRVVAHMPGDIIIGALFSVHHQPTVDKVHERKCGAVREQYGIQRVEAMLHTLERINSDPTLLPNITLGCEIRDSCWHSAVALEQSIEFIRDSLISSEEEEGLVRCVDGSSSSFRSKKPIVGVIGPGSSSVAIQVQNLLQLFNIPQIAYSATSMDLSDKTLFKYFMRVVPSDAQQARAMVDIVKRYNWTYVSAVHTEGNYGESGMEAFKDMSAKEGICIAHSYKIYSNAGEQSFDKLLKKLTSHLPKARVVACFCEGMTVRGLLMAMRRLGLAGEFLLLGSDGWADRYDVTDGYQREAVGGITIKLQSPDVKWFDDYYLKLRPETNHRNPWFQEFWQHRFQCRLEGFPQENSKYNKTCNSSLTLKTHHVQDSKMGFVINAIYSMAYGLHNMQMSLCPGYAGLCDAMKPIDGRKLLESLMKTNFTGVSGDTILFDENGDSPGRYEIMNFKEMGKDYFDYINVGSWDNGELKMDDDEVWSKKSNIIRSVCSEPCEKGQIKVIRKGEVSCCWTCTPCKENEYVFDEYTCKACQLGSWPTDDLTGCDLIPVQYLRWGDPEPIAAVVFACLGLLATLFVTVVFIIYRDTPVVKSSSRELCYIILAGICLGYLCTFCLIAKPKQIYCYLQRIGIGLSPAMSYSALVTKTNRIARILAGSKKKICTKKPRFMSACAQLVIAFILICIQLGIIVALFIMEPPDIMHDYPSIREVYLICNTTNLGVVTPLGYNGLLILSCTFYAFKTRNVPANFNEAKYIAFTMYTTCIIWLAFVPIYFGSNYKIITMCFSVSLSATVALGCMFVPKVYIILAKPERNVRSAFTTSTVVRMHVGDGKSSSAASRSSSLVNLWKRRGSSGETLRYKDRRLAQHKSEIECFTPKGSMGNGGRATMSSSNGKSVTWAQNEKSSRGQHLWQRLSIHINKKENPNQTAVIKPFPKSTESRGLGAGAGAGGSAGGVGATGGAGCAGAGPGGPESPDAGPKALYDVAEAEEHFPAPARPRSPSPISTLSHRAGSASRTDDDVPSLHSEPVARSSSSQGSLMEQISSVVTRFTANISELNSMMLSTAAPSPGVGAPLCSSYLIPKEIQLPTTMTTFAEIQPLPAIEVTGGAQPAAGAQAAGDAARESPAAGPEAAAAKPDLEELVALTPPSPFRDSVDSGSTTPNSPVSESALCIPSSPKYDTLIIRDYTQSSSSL
Assay: positive modulation of mGluR5, calcium based FLIPR assay
Details: HEK 293 cell line expressing human recombinant mGluR5; Ca2+ peak height after glutamate at approximately 5% basal stimulation; nonlinear regression
So basically, if EC50 comes in under 200 nM it's criterion met, and if it's 200 nM or more it's criterion not met.

Asked: Consider Cc1c(C(=O)N2CCN(C(=O)c3ncn(-c4cccc(Cl)c4)n3)C(C)C2)oc2c(F)cccc12 (stereo not shown) [Example 284] . Does its EC50 lie strictly below 200 nM?
Given back: criterion not met

Continuing:
Asked: Dear colleague, could you confirm whether EC50 of COc1ccc2oc(C)c(C(=O)N3CCN(C(=O)c4ncn(-c5cccc(C)c5)n4)CC3C)c2c1 (stereo not shown) [Example 237] falls below 200 nM? Thanks.
Given back: criterion met

Asked: Below 200 nM on EC50? Entry CC1(C)CN(C(=O)c2cccc(Cl)c2)CCN1C(=O)c1ncn(-c2ccccc2F)n1 [Example 194]
Given back: criterion not met

Asked: API: query returns whether the compound falls strictly under 200 nM in EC50. Query: COc1cc(C(=O)N2CCN(C(=O)c3ncn(-c4cccc(Cl)c4)n3)C(C)(C)C2)ccc1C [Example 46]
Given back: criterion met

Asked: Answer whether the compound Cc1ccc(-n2cnc(C(=O)N3CCN(C(=O)c4cc(Cl)c5c(c4)OCCO5)CC3(C)C)n2)cc1F [Example 157] has EC50 strictly less than 200 nM
Given back: criterion not met

Asked: Regarding COc1ccc2oc(C)c(C(=O)N3CCN(C(=O)c4ncn(-c5cccc(F)c5)n4)C(C)C3)c2c1 (stereo not shown) [Example 287] , kindly confirm whether its EC50 is beneath 200 nM.
Given back: criterion not met

Asked: Decide: EC50 of CC1CN(C(=O)c2ncn(-c3cccc(Cl)c3)n2)CCN1C(=O)c1ccc(Cl)s1 (stereo not shown) [Example 231] strictly below 200 nM?
Given back: criterion not met

Asked: Hi there! Is EC50 for CC1(C)CN(C(=O)c2c(Cl)nc3sccn23)CCN1C(=O)c1ncn(-c2cccc(Cl)c2)n1 [Example 63] below 200 nM, do you know?
Given back: criterion met

Asked: Is EC50 of CC1(C)CN(C(=O)c2cccc(COc3ccccc3)c2)CCN1C(=O)c1ncn(-c2cccc(Cl)c2)n1 [Example 74] strictly below 200 nM?
Given back: criterion met

====

Each entry below lists one item and its recorded pEC50 value.
Target: human recombinant mGluR5 (Homo sapiens, UniProt P41594)
Construct: hygromycin and geneticin selection
Test: positive modulation of mGluR5, calcium based FLIPR assay
Details: HEK 293 cell line expressing human recombinant mGluR5; Ca2+ peak height after glutamate at approximately 5% basal stimulation; nonlinear regression
The meaning of pEC50 here: minus log10 of the concentration in molar units.

Use these answered entries as a reference point.
// pEC50 (human recombinant mGluR5 (Homo sapiens, UniProt P41594)) for Cc1oc2ccccc2c1C(=O)N1CCN(C(=O)c2ncn(-c3cccc(Cl)c3)n2)C(C)C1 (centres unmarked) = 6.77

pEC50 on human recombinant mGluR5 (Homo sapiens, UniProt P41594) for CCn1ccc(C(=O)N2CCN(C(=O)c3ncn(-c4cccc(Cl)c4)n3)C(C)(C)C2)n1 is 6.36

Others:
Here Cc1cc(C(=O)N2CCN(C(=O)c3ncn(-c4cccc(Cl)c4)n3)C(C)(C)C2)ccc1Cl was tested on human recombinant mGluR5 (Homo sapiens, UniProt P41594), and its pEC50 came to 6.84

The reported pEC50 value, human recombinant mGluR5 (Homo sapiens, UniProt P41594), for COc1ccc(C(=O)N2CCN(C(=O)c3ncn(-c4ccccc4)n3)C(C)(C)C2)s1 reads 6.16

For the compound CC1(C)CN(C(=O)c2nccc(C(F)(F)F)n2)CCN1C(=O)c1ncn(-c2cccc(Cl)c2)n1 , the measured pEC50 on human recombinant mGluR5 (Homo sapiens, UniProt P41594) was 6.97

Known value: human recombinant mGluR5 (Homo sapiens, UniProt P41594) pEC50 of the compound COc1cccc(C(=O)N2CCN(C(=O)c3ncn(-c4cccc(F)c4)n3)C(C)C2)n1 (centres unmarked) equals 6.39

Param item: CC1(C)CN(C(=O)c2csc(-c3ccccc3)n2)CCN1C(=O)c1ncn(-c2cccc(Cl)c2)n1 ; param system: human recombinant mGluR5 (Homo sapiens, UniProt P41594); output pEC50: 6.70

Noted pEC50 for CC1CN(C(=O)c2cccc(-c3nccs3)c2)CCN1C(=O)c1ncn(-c2cccc(Cl)c2)n1 (centres unmarked) , tested on human recombinant mGluR5 (Homo sapiens, UniProt P41594): 6.17

====

Molecular target: human recombinant mGluR5 (Homo sapiens, UniProt P41594)
Construct: hygromycin and geneticin selection
Assay: positive modulation of mGluR5, calcium based FLIPR assay
Settings: HEK 293 cell line expressing human recombinant mGluR5; Ca2+ peak height after glutamate at approximately 5% basal stimulation; nonlinear regression
The following compounds are shown together with reported log10 EC50 values.
Values reflect log10 of reported EC50 (nM).

Check out these entries, answers already filled in.
Entry COC(C)c1cccc(C(=O)N2CCN(C(=O)c3ncn(-c4ccccc4)n3)C(C)(C)C2)c1 (centres unmarked) , log10 EC50 reported as 2.59

Reported log10 EC50 for CC(C)c1ccc(C(=O)N2CCN(C(=O)c3ncn(-c4cccc(Cl)c4)n3)C(C)(C)C2)cc1 was 1.98

For reference, reported log10 EC50 for Cn1nc(C(=O)N2CCN(C(=O)c3ncn(-c4cccc(Cl)c4)n3)C(C)(C)C2)c2ccccc21 stands at 2.26

# log10 EC50 of Cc1cc(C)cc(C(=O)N2CCN(C(=O)c3ncn(-c4ccccc4)n3)C(C)(C)C2)c1 = 1.88

New cases:
The compound CC(C)c1cccc(C(=O)N2CCN(C(=O)c3ncn(-c4ccccc4)n3)C(C)(C)C2)n1 showed log10 EC50 equal to 2.27

# log10 EC50 (compound: Cc1ccc(Cl)cc1C(=O)N1CCN(C(=O)c2ncn(-c3cccc(Cl)c3)n2)C(C)(C)C1 ) is 2.08

Looking up Cc1oc2ccccc2c1C(=O)N1CCN(C(=O)c2ncn(-c3cccc(F)c3)n2)C(C)(C)C1 , I see its log10 EC50 listed as 2.12

The value of log10 EC50 measured for the compound Cc1cccc(-n2cnc(C(=O)N3CCN(C(=O)c4cccc(Cl)c4)CC3(C)C)n2)c1 turned out to be 1.52

====

Target: human recombinant mGluR5 (Homo sapiens)
Construct: hygromycin and geneticin selection
Assay: positive modulation of mGluR5, calcium based FLIPR assay
Conditions: HEK 293 cell line expressing human recombinant mGluR5; Ca2+ peak height after glutamate at approximately 5% basal stimulation; nonlinear regression
Measurement Label: pEC50
pEC50 is defined as minus the log10 of a concentration measured in mol/L.

Some entries whose results are on file:
pEC50 for human recombinant mGluR5 (Homo sapiens) with input CC1CN(C(=O)c2cc(Cl)c3c(c2)OCCO3)CCN1C(=O)c1ncn(-c2cccc(Cl)c2)n1 (stereo not shown) [Example 283] equals 6.63

Lab entry: human recombinant mGluR5 (Homo sapiens) assay, compound CC1(C)CN(C(=O)c2noc(-c3ccccc3)n2)CCN1C(=O)c1ncn(-c2ccccc2)n1 [Example 139] , pEC50 = 6.50

Reading of pEC50 for COCc1c(C(=O)N2CCN(C(=O)c3ncn(-c4cccc(Cl)c4)n3)CC2C)oc2ccccc12 (stereo not shown) [Example 217] with human recombinant mGluR5 (Homo sapiens): 5.81

More entries:
Record for CC1(C)CN(C(=O)c2cc3ccccc3c(OCC3CC3)n2)CCN1C(=O)c1ncn(-c2cccc(Cl)c2)n1 [Example 85] under target or system human recombinant mGluR5 (Homo sapiens): pEC50 reported as 6.96

====

Target: human recombinant mGluR5 (Homo sapiens, UniProt P41594)
Construct: hygromycin and geneticin selection
Assay: positive modulation of mGluR5, calcium based FLIPR assay
Settings: HEK 293 cell line expressing human recombinant mGluR5; Ca2+ peak height after glutamate at approximately 5% basal stimulation; nonlinear regression
Entries annotated with measured pEC50
Units for pEC50: none; it is -log10 of a concentration expressed in mol/L.

Below, 3 compounds whose answers are already recorded.
Record Cn1nccc1-c1cccc(C(=O)N2CCN(C(=O)c3ncn(-c4cccc(Cl)c4)n3)C(C)(C)C2)n1 [Example 91] / human recombinant mGluR5 (Homo sapiens, UniProt P41594), pEC50 recorded as 6.95

Value sought: pEC50, system human recombinant mGluR5 (Homo sapiens, UniProt P41594), item CC1CN(C(=O)c2ncn(-c3cccc(Cl)c3)n2)CCN1C(=O)c1cn(C)c2ccccc12 (stereo not shown) [Example 230] . Result: 6.24

# pEC50 measured on human recombinant mGluR5 (Homo sapiens, UniProt P41594) for item Cc1c(C(=O)N2CCN(C(=O)c3ncn(-c4cccc(Cl)c4)n3)CC2C)oc2c(F)cccc12 (stereo not shown) [Example 232] = 5.93

Lab note: next compound to report on.
Query COc1cccc(C(=O)N2CCN(C(=O)c3ncn(-c4cccc(Cl)c4)n3)[C@H](C)C2)n1 [Example 301] on human recombinant mGluR5 (Homo sapiens, UniProt P41594); pEC50 returned: 6.79

Each recorded value in this set is attributed to patent US8883789B2.
